# test_target: RNase A (Bos taurus, UniProt P61823)
# Sequence (P61823 27-150): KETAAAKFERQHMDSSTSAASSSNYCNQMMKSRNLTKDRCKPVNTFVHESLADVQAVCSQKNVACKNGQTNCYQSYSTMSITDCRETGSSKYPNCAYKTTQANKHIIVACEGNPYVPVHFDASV
# assay_notes: cCMP hydrolysis assay of RNase A inhibition (absorbance 286 nm)
# Assay type: biochemical, bovine
# Design: Ribonuclease A (Type II-A) from bovine pancreas; purchased Sigma-Aldrich Korea; host or cells: bovine pancreas
# assay_context: inhibitor 0.1 nM to 1 μM, linear regression
Where no end group is shown, it is not given here.
value_kind: pIC50
Just the number, please; pIC50 means minus log10 of the concentration in mol/L.

I would be grateful if you could share the reported pIC50 for DGTAKKSRKDD [Peptide-3] .
6.45

Same read-out for CGPDSDVMTDF [Peptide-1] ?
6.22

Input YGPVGRVKRDD [Peptide-2]
6.43
